For each record, write down the corresponding polymerase ribozyme fitness (log ratio).
B1: TPR 5TU (parent)
chain: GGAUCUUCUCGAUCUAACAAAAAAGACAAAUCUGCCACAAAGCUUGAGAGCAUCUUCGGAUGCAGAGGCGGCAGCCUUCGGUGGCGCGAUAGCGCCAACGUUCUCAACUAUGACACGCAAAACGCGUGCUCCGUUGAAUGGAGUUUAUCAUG

# Variants of: B1
# run description: polymerase ribozyme fitness, log enrichment relative to wild type (log ratio); higher = more active; in vitro selection for triplet polymerase activity
Fewer inactive variants are shown than the library holds.
Form: value (number only, do not type unit).

According to the records, this variant U55A G58C displays polymerase ribozyme fitness (log ratio) of -0.661

variant G11A C38A A40G , polymerase ribozyme fitness (log ratio) observed: -4.14

The recorded polymerase ribozyme fitness (log ratio) for entry C51A U134G U144A equals -4.17

// sample G83U G100U , its polymerase ribozyme fitness (log ratio) was -3.9

polymerase ribozyme fitness (log ratio) for G11A C85G G94U is -0.903

For A60U C131A the variant record lists polymerase ribozyme fitness (log ratio) as -2.81

Summary for this variant, `C116A` : polymerase ribozyme fitness (log ratio) is 1.34

Reported polymerase ribozyme fitness (log ratio) for C93A A121C U148C was -2.37

Record C27U G84A . Reported polymerase ribozyme fitness (log ratio): -1.66

Notebook: U53A G81A C85A C131U , polymerase ribozyme fitness (log ratio) read as -4.19

Sample `A26G` ; polymerase ribozyme fitness (log ratio) observed: -2.11

These measurements were taken from the RNAGym collection of RNA variant scans (doi:10.1073/pnas.2313332121).
